Sourced from patent US11819503B2

Assay: in vivo
Conditions: male, mouse, po, 20 mg/kg, AUC 0-12
propertyMeasured: AUC(0-t) (ng·h/mL)
Response body: numeric value in ng·h/mL, unit text excluded.

Entry under test: Cc1cc(-c2ccccc2)c(C(=O)C(=O)Nc2ccc(N3CCN(c4ncc(F)cn4)CC3)cc2)n1C . Its AUC(0-t) was 22100

----------
Assay: in vivo
Conditions: male, mouse, po, 20 mg/kg, Cmax
propertyMeasured: Cmax (ng/mL)
Give just the number in ng/mL; leave the unit off.

Cmax recorded for this compound, Cc1cc(-c2ccccc2)c(C(=O)C(=O)Nc2ccc(N3CCN(c4ncc(F)cn4)CC3)cc2)n1C , is 3910
